Please respond with reported EC50 for every item in the list.
test system: generation of reactive oxygen species in the murine kidney membrane; experiment: Lucigenin-based assay of reactive oxygen species generation in isolated kidney membrane; type: biochemical, rat (Rattus norvegicus); conditions: 37° C. for 10 minutes, luminescence, compound 40, 10, 2.5, 0.625, 0 μM, read-out: EC50 (inhibition of generation of reactive oxygen species)
Give bare numbers, in nM.

In the examples that follow, each entry is paired with its recorded EC50.
{"MOL SMILES": "Oc1cc(-c2ccc(I)cc2)nn1-c1ccccn1", "EXPERIMENTAL RESULT": 450}
{"MOL SMILES": "CC(C)[Si](Oc1cc(-c2ccc(-c3ccc(Br)cc3)cc2)nn1-c1ccccn1)(C(C)C)C(C)C", "EXPERIMENTAL RESULT": 400}
{"MOL SMILES": "Oc1cc(-c2cccc(-c3cccc(-c4ccccc4)c3)c2)nn1-c1ccccn1", "EXPERIMENTAL RESULT": 400}
{"MOL SMILES": "Oc1c(Cc2ccccc2)c(-c2ccccc2)nn1-c1ccccn1", "EXPERIMENTAL RESULT": 3000}

Go through the items and report each one's EC50.
1. Oc1cc(-c2ccccc2-c2ccc3c(c2)OCO3)nn1-c1ccccn1
2. Oc1cc(-c2ccc(-c3ccccc3)cc2)nn1-c1ccccn1
3. Oc1cc(-c2ccc(Br)cc2)nn1-c1ccccn1
4. Oc1cc(-c2cccc(-c3ccccc3Oc3ccccc3)c2)nn1-c1ccccn1

1: 1400; 2: 400; 3: 1200; 4: 625
